Values from ChEMBL document CHEMBL3045836

test system: Bacillus subtilis; experiment: Antibacterial activity against Bacillus subtilis at 500 ppm; assay type: functional; conditions: read-out: IZ
Criterion: zone of inhibition at 500 ppm meeting or surpassing 7 mm. Met: 1.0. Not met: 0.0.

- Compound: "O=C1c2ccccc2C(=O)N1OCCN1N=C2C(SC3=NC(c4ccccc4)(c4ccccc4)C(=O)N32)C1c1ccc(Cl)cc1 (stereo unspecified)"
  Class Label: 0.0
- Compound: "COc1ccc(C2C3SC4=NC(c5ccccc5)(c5ccccc5)C(=O)N4C3=NN2CCON2C(=O)c3ccccc3C2=O)cc1 (stereo unspecified)"
  Class Label: 1.0
- Compound: "O=C1c2ccccc2C(=O)N1OCCNc1nc(-c2ccc(Cl)cc2)c2c(n1)N1C(=O)C(c3ccccc3)(c3ccccc3)N=C1S2"
  Class Label: 0.0
- Compound: "O=C1c2ccccc2C(=O)N1OCCN1N=C2C(SC3=NC(c4ccccc4)(c4ccccc4)C(=O)N32)C1c1ccc(F)cc1 (stereo unspecified)"
  Class Label: 0.0
- Compound: "CN(C)c1ccc(-c2nc(NCCON3C(=O)c4ccccc4C3=O)nc3c2SC2=NC(c4ccccc4)(c4ccccc4)C(=O)N23)cc1"
  Class Label: 1.0
- Compound: "O=C1c2ccccc2C(=O)N1OCCNc1nc(-c2ccc(F)cc2)c2c(n1)N1C(=O)C(c3ccccc3)(c3ccccc3)N=C1S2"
  Class Label: 1.0
- Compound: "O=C(O)c1cn(C2CC2)c2cc(N3CCNCC3)c(F)cc2c1=O"
  Class Label: 1.0
- Compound: "COc1ccc(-c2nc(NCCON3C(=O)c4ccccc4C3=O)nc3c2SC2=NC(c4ccccc4)(c4ccccc4)C(=O)N23)cc1"
  Class Label: 1.0
- Compound: "O=C1c2ccccc2C(=O)N1OCCN1N=C2C(SC3=NC(c4ccccc4)(c4ccccc4)C(=O)N32)C1c1ccccc1 (stereo unspecified)"
  Class Label: 1.0
